Where do the numbers come from? From patent US20220331442A1.

- PROTOCOL NOTES: MTT cytotoxicity assay
- Type: cell-based
- PARTICULARS: human, H23 NSCLC cells; gefitinib alone at 50 μM, FIG. 21(b); read-out: Loss of viability of H23 cells
PROPERTY NAME: cytotoxicity at 50 μM (%)
Numbers only, in %.

Incoming: Please report cytotoxicity at 50 μM for the following molecule: COc1cc2ncnc(Nc3ccc(F)c(Cl)c3)c2cc1OCCCN1CCOCC1 [gefitinib]
Outgoing: 70
